The reported numbers originate from the supplement of paper PMC12338614.

B1: library; numbered along this chain (parent)
chain: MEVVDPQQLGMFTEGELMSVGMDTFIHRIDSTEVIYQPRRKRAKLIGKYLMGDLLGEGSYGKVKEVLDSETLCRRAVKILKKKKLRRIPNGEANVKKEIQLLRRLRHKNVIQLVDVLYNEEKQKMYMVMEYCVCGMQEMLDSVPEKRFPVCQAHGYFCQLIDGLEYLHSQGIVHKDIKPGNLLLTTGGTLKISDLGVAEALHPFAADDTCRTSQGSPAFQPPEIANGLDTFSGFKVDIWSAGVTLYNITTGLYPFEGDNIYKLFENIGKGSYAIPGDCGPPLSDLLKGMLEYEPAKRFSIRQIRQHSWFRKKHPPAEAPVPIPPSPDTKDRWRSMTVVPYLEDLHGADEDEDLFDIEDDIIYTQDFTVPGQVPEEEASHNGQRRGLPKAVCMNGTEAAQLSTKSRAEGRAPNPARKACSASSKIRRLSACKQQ

Variants of: B1
Experiment: STK11 functional score (HeLa growth suppression), rescaled enrichment; synonymous median = 1, nonsense median = 0 (normalised score)
Conditions: with HeLa; variant type: missense
observed-property: STK11 functional score
Answer with the value's number alone.

Would you please look over these solved cases?
1) D352A :: 0.984
2) P89V :: 0.683
3) P369Y :: 1.41
4) P411F :: 0.906
5) Y126G :: 0.669
6) Q305M :: 1.51
7) R40F :: 1.3
8) K41A :: 1.25
9) V116E :: 1.52
10) K423D :: 1.14

For the variant Y36F , what STK11 functional score is on record?
0.511

For the variant A316M , what STK11 functional score is on record?
1

For the variant R384A , what STK11 functional score is on record?
1.33

For the variant Q123H , what STK11 functional score is on record?
1.11

For the variant P275N , what STK11 functional score is on record?
1.41

For the variant L80V , what STK11 functional score is on record?
0.484

For the variant H174C , what STK11 functional score is on record?
0.891

For the variant W239P , what STK11 functional score is on record?
-0.0966

For the variant R384N , what STK11 functional score is on record?
1.54
